ASSAY TARGET: H1047R PIK3CA enzyme (Homo sapiens, UniProt P42336, H1047R)
Sequence (P42336 whole entry H1047R): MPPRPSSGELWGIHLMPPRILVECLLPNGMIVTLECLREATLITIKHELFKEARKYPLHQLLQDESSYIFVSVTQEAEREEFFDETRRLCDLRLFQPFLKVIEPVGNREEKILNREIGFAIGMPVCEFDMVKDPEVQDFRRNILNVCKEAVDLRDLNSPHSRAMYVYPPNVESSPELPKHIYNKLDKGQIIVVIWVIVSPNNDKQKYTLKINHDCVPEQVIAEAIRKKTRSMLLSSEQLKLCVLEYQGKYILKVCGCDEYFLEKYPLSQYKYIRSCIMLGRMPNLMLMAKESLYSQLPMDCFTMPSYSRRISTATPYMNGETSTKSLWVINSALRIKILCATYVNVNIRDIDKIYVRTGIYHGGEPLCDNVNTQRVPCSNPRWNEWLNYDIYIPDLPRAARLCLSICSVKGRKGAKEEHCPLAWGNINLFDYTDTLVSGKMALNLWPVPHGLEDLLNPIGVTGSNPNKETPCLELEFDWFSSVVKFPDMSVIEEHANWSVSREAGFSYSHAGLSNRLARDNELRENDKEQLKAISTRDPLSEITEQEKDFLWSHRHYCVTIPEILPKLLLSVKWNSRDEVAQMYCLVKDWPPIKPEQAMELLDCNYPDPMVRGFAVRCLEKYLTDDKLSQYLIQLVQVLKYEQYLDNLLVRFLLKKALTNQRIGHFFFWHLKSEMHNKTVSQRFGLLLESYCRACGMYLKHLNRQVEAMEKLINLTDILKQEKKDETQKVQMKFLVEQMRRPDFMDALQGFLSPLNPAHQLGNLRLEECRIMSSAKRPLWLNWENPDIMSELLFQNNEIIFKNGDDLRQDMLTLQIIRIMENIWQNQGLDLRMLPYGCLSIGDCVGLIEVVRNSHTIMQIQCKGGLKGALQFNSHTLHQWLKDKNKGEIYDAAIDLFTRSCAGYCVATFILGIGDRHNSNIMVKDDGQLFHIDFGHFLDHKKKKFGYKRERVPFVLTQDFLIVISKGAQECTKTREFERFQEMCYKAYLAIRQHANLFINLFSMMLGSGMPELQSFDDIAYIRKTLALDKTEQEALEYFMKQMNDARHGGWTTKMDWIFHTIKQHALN
Sequence (P27986 whole entry partner): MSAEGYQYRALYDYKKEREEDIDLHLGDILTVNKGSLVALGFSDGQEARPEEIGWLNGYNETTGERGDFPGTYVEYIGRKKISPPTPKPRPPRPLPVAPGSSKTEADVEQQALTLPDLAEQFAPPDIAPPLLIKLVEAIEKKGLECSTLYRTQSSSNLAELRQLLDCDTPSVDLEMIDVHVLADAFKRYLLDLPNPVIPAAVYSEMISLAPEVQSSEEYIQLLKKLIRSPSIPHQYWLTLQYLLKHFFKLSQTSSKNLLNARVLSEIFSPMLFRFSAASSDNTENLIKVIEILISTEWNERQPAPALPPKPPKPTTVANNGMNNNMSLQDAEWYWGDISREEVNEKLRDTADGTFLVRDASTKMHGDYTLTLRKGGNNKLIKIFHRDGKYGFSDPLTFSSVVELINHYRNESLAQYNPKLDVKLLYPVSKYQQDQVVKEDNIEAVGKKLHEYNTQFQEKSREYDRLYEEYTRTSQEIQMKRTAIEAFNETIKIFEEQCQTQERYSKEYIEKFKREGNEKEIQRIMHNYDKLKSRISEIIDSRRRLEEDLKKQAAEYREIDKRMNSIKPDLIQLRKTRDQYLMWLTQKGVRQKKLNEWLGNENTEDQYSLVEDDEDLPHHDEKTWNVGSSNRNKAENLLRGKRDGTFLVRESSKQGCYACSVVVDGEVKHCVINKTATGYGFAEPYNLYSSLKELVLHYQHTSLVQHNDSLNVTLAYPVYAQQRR
ASSAY PROCEDURE: ADP-Glo Biochemical PIK3CA Kinase Assay
pIC50: −log10 of the molar value.
REPORTED METRIC: pIC50

Answered cases to consult:
| MOLECULE | pIC50 |
| --- | --- |
| CNC(=O)c1cnc(Nc2ccccc2Cl)c(NC(=O)c2csc3ccccc23)c1 | ≥ 7.00 |
| O=C(Nc1cc(-c2ccc3ncnn3c2)cnc1Nc1cc(F)ccc1Cl)c1cc(F)cc(C(F)(F)F)c1 | 4.00 to 5.00 |
| CNC(=O)c1cnc(Nc2ccccc2C)c(NC(=O)C(O)c2cccc(F)c2)c1 (stereo not drawn) | 6.00 to 6.30 |

Below are some molecules; for each one, tell me its pIC50.
1. CNC(=O)c1cnc(Nc2ccccc2C)c(NC(=O)c2cc3c(F)cc(F)cc3[nH]2)c1
2. CNC(=O)c1cnc(N2CCNc3ccccc32)c(NC(=O)c2csc3ccccc23)c1
3. CNC(=O)c1cnc(Nc2ccccc2C)c(NC(=O)c2c[nH]c3cccc(OC)c23)c1
4. CNC(=O)c1cnc(Nc2ccccc2F)c(NC(=O)c2cc(F)cc(C(F)(F)F)c2)c1

1. 4.00 to 5.00
2. 4.00 to 5.00
3. 4.00 to 5.00
4. 5.00 to 6.00

Below are some molecules; for each one, tell me its pIC50.
1. CNC(=O)c1cnc(Nc2ccccc2Cl)c(NC(=O)c2cc(F)cc(C(F)(F)F)c2)c1
2. CNC(=O)c1cnc(Nc2ccccc2C)c(NC(=O)c2cn(C)c3ccccc23)c1
3. Cc1ccccc1Nc1ncc(C(=O)Nc2ccn(C)n2)cc1NC(=O)c1cc(F)cc(C(F)(F)F)c1
4. COCCNC(=O)c1cnc(Nc2ccccc2C)c(NC(=O)c2csc3ccccc23)c1

["6.30 to 7.00", "5.00 to 6.00", "6.00 to 6.30", "6.30 to 7.00"]

Below are some molecules; for each one, tell me its pIC50.
1. Cc1ccccc1Nc1ncc(-c2cnn(C)c2)cc1NC(=O)c1ccc(C(F)(F)F)cc1
2. CNC(=O)c1cnc(Nc2ccccc2C)c(NS(=O)(=O)c2ccccc2)c1
3. CNC(=O)c1cnc(Nc2ccccc2C)c(NC(=O)c2nn(C)c3ccccc23)c1
4. CNC(=O)c1cnc(Nc2ccccc2C)c(NC(=O)c2cc(F)cc(S(N)(=O)=O)c2)c1
5. Cc1ccccc1Nc1ncc(C(C)(C)O)cc1NC(=O)c1cc(F)cc(C(F)(F)F)c1
6. Cc1ccccc1Nc1ncc(C2CC2)cc1NC(=O)c1cc(F)cc(C(F)(F)F)c1
7. CNC(=O)c1cc(NC(=O)c2cc(F)cc(C(F)(F)F)c2)c(N(C)c2ccccc2C)cn1

4.00 to 5.00
5.00 to 6.00
4.00 to 5.00
4.00 to 5.00
5.00 to 6.00
5.00 to 6.00
5.00 to 6.00

====

ASSAY TARGET: H1047R PIK3CA enzyme (Homo sapiens, UniProt P42336, H1047R)
ASSAY PROCEDURE: ADP-Glo Biochemical PIK3CA Kinase Assay
DETAILS: ADP-Glo biochemical PIK3CA kinase assay
I'd be grateful if you could share measured IC50 for these entries.

| MOLECULE | IC50 |
| --- | --- |
| CNC(=O)c1cnc(Nc2ccccc2C)c(NC(=O)c2cc3c(Br)cccc3[nH]2)c1 | 10000 to 100000 nM |

Below are some molecules; for each one, tell me its IC50.
1. CNC(=O)c1cnc(Nc2ccccc2C)c(NC(=O)C2CCc3ccccc3O2)c1 (stereo not drawn)
2. Cc1ccccc1Nc1ncc(C(=O)Nc2cnn(C)c2)cc1NC(=O)c1csc2ccccc12
3. COC(=O)CCS(=O)(=O)c1cnc(Nc2ccccc2C)c(NC(=O)c2cc(F)cc(C(F)(F)F)c2)c1
4. O=C(N[C@H]1CCC[C@H]1N1CCOc2ccccc21)c1cc(F)cc(C(F)(F)F)c1 (racemic)
5. CNC(=O)c1cnc(Nc2ccccc2C)c(NC(=O)c2cc3c(Cl)ccnc3[nH]2)c1
6. COc1ccc(SC2(C(=O)O)CC(=O)NC2c2ccccc2C)cc1 (stereo not drawn)

["1000 to 10000 nM", "100 to 500 nM", "1000 to 10000 nM", "500 to 1000 nM", "10000 to 100000 nM", "1000 to 10000 nM"]

====

ASSAY TARGET: H1047R PIK3CA enzyme (Homo sapiens, UniProt P42336, H1047R)
ASSAY PROCEDURE: ADP-Glo Biochemical PIK3CA Kinase Assay
REPORTED METRIC: IC50

Answered cases to consult:
| COMPOUND | ASSAY TARGET | IC50 |
| --- | --- | --- |
| CNC(=O)c1cnc(Nc2ccccc2C)c(NC(=O)c2n[nH]c3c(F)cccc23)c1 | H1047R PIK3CA enzyme (Homo sapiens, UniProt P42336, H1047R) | 10 to 100 µM |
| CNC(=O)c1cnc(Nc2ccc(C)cc2)c(NC(=O)c2csc3ccccc23)c1 | H1047R PIK3CA enzyme (Homo sapiens, UniProt P42336, H1047R) | 10 to 100 µM |
| CNC(=O)c1cnc(NC2CCCC2)c(NC(=O)c2cc(F)cc(C(F)(F)F)c2)c1 | H1047R PIK3CA enzyme (Homo sapiens, UniProt P42336, H1047R) | 10 to 100 µM |

Below are some compounds; for each one, tell me its IC50.
1. CNC(=O)c1cnc(Nc2ccccc2C)c(NC(=O)Cc2cccnc2)c1
2. Cc1ccc(Nc2ncc(C(=O)NCc3ccn(C)n3)cc2NC(=O)c2csc3ccccc23)cc1
3. CNC(=O)c1cnc(Nc2nn(C)cc2Br)c(NC(=O)c2cc(F)cc(C(F)(F)F)c2)c1
4. Cc1ccccc1Nc1ncc(-c2cnn(C3CCNCC3)c2)cc1NC(=O)c1cc(F)cc(C(F)(F)F)c1

10 to 100 µM
1 to 10 µM
10 to 100 µM
0.5 to 1 µM

Below are some compounds; for each one, tell me its IC50.
1. CNC(=O)c1cnc(Nc2cc(F)ccc2Cl)c(Nc2nccc3c(Cl)cccc23)c1
2. O=C(Nc1cc(C(=O)N[C@H]2C[C@H](O)C2)cnc1Nc1ccccc1)c1cc(F)cc(C(F)(F)F)c1

10 to 100 µM
0.1 to 0.5 µM

Below are some compounds; for each one, tell me its IC50.
1. CNC(=O)c1cnc(Nc2cccc(F)c2)c(N)c1
2. Cc1ccccc1Nc1ncc(NCC(N)=O)cc1NC(=O)c1cc(F)cc(C(F)(F)F)c1
3. CCn1nc(C(=O)Nc2cc(C(=O)NC)cnc2Nc2ccccc2C)c2ccccc21
4. Cc1ccccc1Nc1ncc(-c2cnn(C)c2)cc1NC(=O)c1ccc2[nH]ncc2c1

1: 10 to 100 µM; 2: 1 to 10 µM; 3: 10 to 100 µM; 4: 10 to 100 µM

Below are some compounds; for each one, tell me its IC50.
1. Cc1cnnc(NC(=O)c2cnc(Nc3ccccc3C)c(NC(=O)c3cc(F)cc(C(F)(F)F)c3)c2)c1
2. CNC(=O)c1cnc(Nc2ccccc2C)c(NS(=O)(=O)c2cn(C)nc2C)c1
3. CNC(=O)c1cnc(Nc2ccccc2C)c(NC(=O)c2oc(C)nc2C)c1

1: 1 to 10 µM; 2: 10 to 100 µM; 3: 1 to 10 µM

Below are some compounds; for each one, tell me its IC50.
1. CNC(=O)c1cnc(N2CCc3ccccc32)c(NC(=O)c2cc(F)cc(C(F)(F)F)c2)c1
2. CNC(=O)c1cnc(Nc2ccccc2C)c(NC(=O)c2cc(F)cc(C(F)(F)F)c2)c1
3. Cc1ccc(NC(=O)c2cc(F)cc(C(F)(F)F)c2)c(Nc2ccccc2C)n1
4. CNC(=O)c1cnc(Nc2ccccc2S(C)(=O)=O)c(NC(=O)c2cc(F)cc(C(F)(F)F)c2)c1
5. CNC(=O)c1cnc(Nc2cc(CO)ccc2Cl)c(NC(=O)c2cc(F)cc(C(F)(F)F)c2)c1
6. Cc1ccccc1Nc1ncc(-c2c(C)noc2C)cc1NC(=O)c1cc(F)cc(C(F)(F)F)c1
7. O=C(Nc1cc(-c2ccc3ncnn3c2)cnc1N[C@H]1CCCC[C@H]1CO)c1cc(F)cc(C(F)(F)F)c1 (racemic)

10 to 100 µM
0.5 to 1 µM
1 to 10 µM
10 to 100 µM
0.1 to 0.5 µM
0.5 to 1 µM
10 to 100 µM

Below are some compounds; for each one, tell me its IC50.
1. CNC(=O)c1cnc(Nc2ccccc2C)c(NC(=O)c2ccc3ccccc3c2)c1
2. CNC(=O)c1cnc(Nc2ccccc2C)c(NCc2cc(F)cc(C(F)(F)F)c2)c1
3. CNC(=O)c1cnc(Nc2ccccc2C)c(NC(=O)c2ccc3c(n2)CCCN3)c1
4. CNC(=O)c1cnc(Nc2ccc(C)nc2)c(NC(=O)c2cc(F)cc(C(F)(F)F)c2)c1
5. COc1ncc(-c2cnc(Nc3ccccc3C)c(NC(=O)c3cc(F)cc(C(F)(F)F)c3)c2)cn1

1. 10 to 100 µM
2. 10 to 100 µM
3. 10 to 100 µM
4. 10 to 100 µM
5. 0.5 to 1 µM
